targetSystem: Metabotropic glutamate receptor 8 (Homo sapiens)
Sequence (O00222 whole entry): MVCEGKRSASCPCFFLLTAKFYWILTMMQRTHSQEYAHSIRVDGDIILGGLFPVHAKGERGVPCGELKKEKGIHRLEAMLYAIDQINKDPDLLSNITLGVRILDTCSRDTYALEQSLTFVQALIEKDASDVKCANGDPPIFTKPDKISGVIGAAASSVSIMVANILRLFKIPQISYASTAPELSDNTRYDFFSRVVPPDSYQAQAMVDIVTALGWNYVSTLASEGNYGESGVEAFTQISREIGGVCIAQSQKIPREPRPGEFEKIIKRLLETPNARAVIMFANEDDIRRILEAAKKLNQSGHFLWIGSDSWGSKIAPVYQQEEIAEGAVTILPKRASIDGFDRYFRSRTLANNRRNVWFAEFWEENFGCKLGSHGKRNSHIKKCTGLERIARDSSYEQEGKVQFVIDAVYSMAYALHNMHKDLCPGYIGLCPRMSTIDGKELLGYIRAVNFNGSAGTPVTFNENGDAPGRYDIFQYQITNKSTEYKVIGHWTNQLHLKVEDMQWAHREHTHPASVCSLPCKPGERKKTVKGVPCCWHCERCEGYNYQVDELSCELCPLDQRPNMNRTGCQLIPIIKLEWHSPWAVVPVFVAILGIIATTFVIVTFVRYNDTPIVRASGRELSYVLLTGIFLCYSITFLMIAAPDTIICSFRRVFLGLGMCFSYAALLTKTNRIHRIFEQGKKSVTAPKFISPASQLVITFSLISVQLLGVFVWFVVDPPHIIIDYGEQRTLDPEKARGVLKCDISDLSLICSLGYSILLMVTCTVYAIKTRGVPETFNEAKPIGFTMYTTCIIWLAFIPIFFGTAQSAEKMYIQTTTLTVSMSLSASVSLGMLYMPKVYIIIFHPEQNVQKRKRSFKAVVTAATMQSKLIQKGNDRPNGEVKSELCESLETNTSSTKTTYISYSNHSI
assayRemarks: Fold shift mGlu8 using GIRK assay.
Format: functional
assayReadout: pEC50
Answers are plain numbers, as −log10 of the molar value.

# query: pEC50 of entry COC(=O)c1ccc(-n2c(C)cc(C(=O)CSc3ccc(NC(C)=O)cc3)c2C)cc1
6.14

====

For each of the compounds below, state its IC50.
targetSystem: UniProt Q9HC16
Sequence (Q9HC16 whole entry): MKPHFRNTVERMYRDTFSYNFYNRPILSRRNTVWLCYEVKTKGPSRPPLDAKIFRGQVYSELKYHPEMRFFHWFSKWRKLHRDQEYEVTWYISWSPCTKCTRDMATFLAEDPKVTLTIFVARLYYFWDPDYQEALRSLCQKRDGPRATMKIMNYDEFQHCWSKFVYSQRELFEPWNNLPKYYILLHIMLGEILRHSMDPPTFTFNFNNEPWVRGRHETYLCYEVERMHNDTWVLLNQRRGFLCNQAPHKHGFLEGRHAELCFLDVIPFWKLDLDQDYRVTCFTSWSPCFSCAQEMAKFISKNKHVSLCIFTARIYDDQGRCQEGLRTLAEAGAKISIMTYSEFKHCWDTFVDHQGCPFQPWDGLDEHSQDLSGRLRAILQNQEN
Assay type: functional
Calls of active or inactive are those of the source.

Past entries and their recorded results:
COc1ccc(C(CC(=O)N2CCOCC2)c2c(OC)cc(OC)c3c(-c4ccccc4)cc(=O)oc23)cc1 (centres undefined) : 50.9 µM (active)
C=CCNC1=N[C@@H](c2ccccc2)C(C(=O)OC)=C(C)N1CC : 4.51 µM (active)
CCN(CC)C(=O)c1ncn(C)c1C(=O)N(CC)CC : 3.23 µM (active)

Lab note: need IC50 for CCc1cccc(NC(=O)C[n+]2c3n(c4ccc(C(F)(F)F)cc42)CCCCC3)c1 on UniProt Q9HC16, anyone have it?
5.22 µM (active)

====

assayRemarks: cells
Assay type: functional, cell-based
Active and inactive are the calls of the source.
What EC50 was measured for each of the following?

Example results:
O=C1CN(c2ccccc2)C(=O)N1 : > 350 µM (not active)
O=C(NC(=S)Nc1ccccn1)c1cccc([N+](=O)[O-])c1 : > 350 µM (not active)
O=C(NCCSc1c[nH]c2ccccc12)c1ccc(Br)o1 : > 350 µM (not active)
COc1ccc(C(NC(=O)C(C)C)c2ccc3cccnc3c2O)cc1 (stereo not given) : 5.77 µM (active)

# get_value(readout='EC50', item= COc1ccc(CCNC(=O)c2cc(-c3cccs3)on2)cc1OC )
> 350 µM (not active)

====

assayRemarks: HepG2 cell cytotoxicity, dose response, cytotoxicity control for non-replicating M. tuberculosis project (AID 489018)
Assay type: functional
studyConditions: Mycobacterium tuberculosis
The source made the active and inactive calls.
assayReadout: CC50

O=C(NC(=S)NCCc1ccccc1)c1ccccc1 : > 20 µM (active)

Please go through the list and note CC50 for each compound.
1. CCCCCn1c(=O)c(C(=O)Nc2nc(CC(=O)OCC)cs2)c(O)c2ccccc21
2. Cc1nn2c(NCc3ccccn3)cc(C(C)C)nc2c1-c1ccccc1
3. Cn1c(=O)c(C(=O)Nc2ccccn2)c(O)c2ccccc21

> 20 µM (active)
6.6 µM (active)
> 20 µM (active)

====

targetSystem: Paired box protein Pax-8 (Homo sapiens, UniProt Q06710)
Sequence (Q06710 whole entry): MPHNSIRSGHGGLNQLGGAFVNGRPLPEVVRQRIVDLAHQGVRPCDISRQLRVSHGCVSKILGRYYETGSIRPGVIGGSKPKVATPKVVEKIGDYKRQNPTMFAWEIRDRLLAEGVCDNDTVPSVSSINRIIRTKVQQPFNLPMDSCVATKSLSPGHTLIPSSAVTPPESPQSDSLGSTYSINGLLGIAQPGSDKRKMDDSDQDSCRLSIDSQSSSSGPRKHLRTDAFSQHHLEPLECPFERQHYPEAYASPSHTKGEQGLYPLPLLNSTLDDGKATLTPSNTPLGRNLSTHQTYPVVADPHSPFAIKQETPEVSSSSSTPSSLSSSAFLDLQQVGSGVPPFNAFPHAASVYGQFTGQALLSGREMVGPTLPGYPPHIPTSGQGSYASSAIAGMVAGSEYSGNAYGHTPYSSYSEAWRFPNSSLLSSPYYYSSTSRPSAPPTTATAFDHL
assayRemarks: inhibitors of PAX8-driven TPO luciferase reporter, dose response, RMG-I cells, cherry-pick (AID 687027);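 note: luciferase reporter driven by Pax8 target thyroperoxidase promoter measured by SteadyGlo luminescence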
Format: functional, cell-based
Active and inactive are the calls of the source.
assayReadout: AC50

Look over these answered cases.
C[C@@H]1CN([C@H](C)CO)C(=O)c2cc(NS(=O)(=O)c3ccccc3)ccc2O[C@@H](C)CCCCO[C@H]1CN(C)Cc1ccc(C(F)(F)F)cc1 : 5.82 µM (active)
O=C1C(Br)=C(N2CCN(CCOCCO)CC2)C(=O)c2c(O)ccc(O)c21 : 7.03 µM (active)
COc1ccc(S(=O)(=O)Nc2ccc3c(c2)C(=O)N([C@H](C)CO)C[C@@H](C)[C@H](CN(C)S(=O)(=O)c2ccc(F)cc2)OCCCC[C@H](C)O3)cc1 : 4.65 µM (active)
COC(=O)C1=C(C)N(Cc2cccc(C(F)(F)F)c2)C(NCc2ccc(OC)cc2)=NC1c1cccc(F)c1 (centres undefined) : 11.5 µM (active)
CC1=Nc2ncnn2C(c2cccnc2)/C1=C(\O)OC1CCCCC1 (centres undefined) : 36.1 µM (active)
Cc1ccc2nc(C)cc(Nc3ccc([N+](=O)[O-])cc3)c2c1 : 5.33 µM (active)
C[C@@H]1CCCCO[C@H](CN(C)CC2CCCCC2)[C@H](C)CN([C@H](C)CO)C(=O)c2cc(NS(=O)(=O)c3ccccc3)ccc2O1 : 20.1 µM (active)
C[C@@H]1CN([C@H](C)CO)C(=O)c2cc(NS(=O)(=O)c3ccc(F)cc3)ccc2O[C@@H](C)CCCCO[C@H]1CN(C)S(=O)(=O)c1ccc(Cl)cc1 : 6.83 µM (active)

Hi, could you look up AC50 for each item in my list?
1. Cc1ccc(S(=O)(=O)N(C)C[C@H]2Oc3cc(C#Cc4ccncc4)ccc3S(=O)(=O)N([C@H](C)CO)C[C@H]2C)cc1
2. COc1cccc(S(=O)(=O)N(C)C[C@@H]2OCc3ccccc3-c3c(n(C)c4ccccc34)C(=O)N([C@H](C)CO)C[C@@H]2C)c1
3. COc1ccc(-c2ccc([C@@H]3[C@@H]4CN(C(=O)Nc5cccc(F)c5)C[C@H]3N4)cc2)cc1
4. C[C@@H]1CN([C@@H](C)CO)C(=O)c2cc(NS(=O)(=O)c3cccs3)ccc2O[C@@H](C)CCCCO[C@H]1CN(C)Cc1ccc(C(F)(F)F)cc1
5. O=C(NCCC1CCCCN1S(=O)(=O)c1ccc(Cl)cc1)C(=O)NCc1ccncc1 (centres undefined)
6. CN(/N=C/c1ccc(O)cc1O)c1nc(-c2ccccc2)cc(-c2ccccc2)n1

["4.03 µM (active)", "6.87 µM (active)", "5.09 µM (active)", "25.2 µM (active)", "3.27 µM (active)", "26.9 µM (active)"]
